# TARGET_OR_TEST_SYSTEM: furin, P09958;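 further: purified furin at 1:10 enzyme:substrate in 50 mM HEPES pH 7.5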
# Sequence (P09958 whole entry): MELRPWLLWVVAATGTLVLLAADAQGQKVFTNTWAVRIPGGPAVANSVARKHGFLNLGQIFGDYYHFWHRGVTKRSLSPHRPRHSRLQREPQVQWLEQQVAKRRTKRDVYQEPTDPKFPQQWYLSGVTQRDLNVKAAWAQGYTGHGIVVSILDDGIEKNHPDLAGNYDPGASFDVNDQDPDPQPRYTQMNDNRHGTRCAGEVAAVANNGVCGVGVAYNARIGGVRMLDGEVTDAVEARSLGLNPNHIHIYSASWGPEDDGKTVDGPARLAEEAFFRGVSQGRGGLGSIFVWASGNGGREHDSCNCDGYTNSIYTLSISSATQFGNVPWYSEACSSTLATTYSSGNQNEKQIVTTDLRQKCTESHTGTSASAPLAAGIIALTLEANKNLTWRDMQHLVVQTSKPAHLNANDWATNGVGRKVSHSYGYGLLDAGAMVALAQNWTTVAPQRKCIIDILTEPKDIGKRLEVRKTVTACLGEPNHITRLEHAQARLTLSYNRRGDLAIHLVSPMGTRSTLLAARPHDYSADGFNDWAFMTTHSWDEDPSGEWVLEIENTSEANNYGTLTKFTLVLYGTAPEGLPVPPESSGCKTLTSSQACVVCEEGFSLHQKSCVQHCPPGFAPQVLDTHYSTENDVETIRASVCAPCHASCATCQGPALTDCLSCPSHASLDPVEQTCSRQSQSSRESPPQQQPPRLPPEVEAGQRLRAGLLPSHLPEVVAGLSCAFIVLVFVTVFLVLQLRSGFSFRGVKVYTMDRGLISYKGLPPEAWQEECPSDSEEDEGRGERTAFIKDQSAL
# MEASUREMENT_PROTOCOL: furin cleavage Z-score vs untreated control; higher = more cleavage, active = 3.5 or more, inactive = 1 or less, 8 variable residues between constant flanks
# EXPERIMENTAL_PARAMETERS: 30 min
This is one part of the list. How many sequences the whole screen found active is unknown.
MEASUREMENT_KIND: furin cleavage Z-score
In your answer, state the number alone without any accompanying words.

Consider the reported furin cleavage Z-score for these sequences:
Ask: Fill blank: measured furin cleavage Z-score of the sequence CARKAREVCDAGNASASA [FS-1900] is ____.
Reply: 4.27

Ask: Request the reported furin cleavage Z-score associated with CALAVAVEPVAGNASASA [HC644]
Reply: -0.692

Ask: Give its furin cleavage Z-score value. Item: CAIYCRKKRIAGNASASA [FS-806]
Reply: 4.48

Ask: I have this sequence here, CARKYRFHGGAGNASASA [FS-1734] , and I need its recorded furin cleavage Z-score.
Reply: -0.103

Ask: What value of furin cleavage Z-score has been recorded for this entry: CARKYREVFCAGNASASA [FS-2041]
Reply: 2.7

Now for another entry.
Ask: Returns the measured furin cleavage Z-score for the input sequence. Input: CAAKSRQMRSAGNASASA [FS-321]
Reply: 8.77
